test: Cytotoxicity against human HPLF cells after 48 hrs; format: cell-based
assayMetric: CC50 at 48 h
Note to self: number, then unit, no commentary.

Some entries whose results are on file:
Query string: Give the measured CC50 at 48 h of `O=C1/C(=C/c2ccccc2)CN(C(=O)C(=O)N2C/C(=C\c3ccccc3)C(=O)/C(=C/c3ccccc3)C2)C/C1=C\c1ccccc1` .
Result string: 5.3 µM

Query string: What about `O=C1/C(=C/c2ccccc2)CN(C(=O)CCCC(=O)N2C/C(=C\c3ccccc3)C(=O)/C(=C/c3ccccc3)C2)C/C1=C\c1ccccc1` ?
Result string: 3.9 µM

Query string: What about `O=C1/C(=C/c2ccccc2)CN(C(=O)/C=C/C(=O)N2C/C(=C\c3ccccc3)C(=O)/C(=C/c3ccccc3)C2)C/C1=C\c1ccccc1` ?
Result string: 22 µM

Query string: What about `O=C1/C(=C/c2ccccc2)CN(C(=O)/C=C/C=C/C(=O)N2C/C(=C\c3ccccc3)C(=O)/C(=C/c3ccccc3)C2)C/C1=C\c1ccccc1` ?
Result string: 47 µM

Query string: What about `O=C1/C(=C/c2ccccc2)CN(C(=O)c2ccccc2C(=O)N2C/C(=C\c3ccccc3)C(=O)/C(=C/c3ccccc3)C2)C/C1=C\c1ccccc1` ?
Result string: 8.5 µM

Attention now shifts to the item below.
Query string: Give the measured CC50 at 48 h of `O=C1/C(=C/c2ccccc2)CN(C(=O)c2cccc(C(=O)N3C/C(=C\c4ccccc4)C(=O)/C(=C/c4ccccc4)C3)c2)C/C1=C\c1ccccc1` .
Result string: 46 µM

====

target: ATP-dependent translocase ABCB1 (Homo sapiens); assay: Inhibition of human MDR1-mediated multidrug resistant in mouse L5178Y cells at 4 uM treated 10 mins before rhodamine 123 challenge measured after 20 mins relative to control; type: cell-based
Sequence (P08183 whole entry): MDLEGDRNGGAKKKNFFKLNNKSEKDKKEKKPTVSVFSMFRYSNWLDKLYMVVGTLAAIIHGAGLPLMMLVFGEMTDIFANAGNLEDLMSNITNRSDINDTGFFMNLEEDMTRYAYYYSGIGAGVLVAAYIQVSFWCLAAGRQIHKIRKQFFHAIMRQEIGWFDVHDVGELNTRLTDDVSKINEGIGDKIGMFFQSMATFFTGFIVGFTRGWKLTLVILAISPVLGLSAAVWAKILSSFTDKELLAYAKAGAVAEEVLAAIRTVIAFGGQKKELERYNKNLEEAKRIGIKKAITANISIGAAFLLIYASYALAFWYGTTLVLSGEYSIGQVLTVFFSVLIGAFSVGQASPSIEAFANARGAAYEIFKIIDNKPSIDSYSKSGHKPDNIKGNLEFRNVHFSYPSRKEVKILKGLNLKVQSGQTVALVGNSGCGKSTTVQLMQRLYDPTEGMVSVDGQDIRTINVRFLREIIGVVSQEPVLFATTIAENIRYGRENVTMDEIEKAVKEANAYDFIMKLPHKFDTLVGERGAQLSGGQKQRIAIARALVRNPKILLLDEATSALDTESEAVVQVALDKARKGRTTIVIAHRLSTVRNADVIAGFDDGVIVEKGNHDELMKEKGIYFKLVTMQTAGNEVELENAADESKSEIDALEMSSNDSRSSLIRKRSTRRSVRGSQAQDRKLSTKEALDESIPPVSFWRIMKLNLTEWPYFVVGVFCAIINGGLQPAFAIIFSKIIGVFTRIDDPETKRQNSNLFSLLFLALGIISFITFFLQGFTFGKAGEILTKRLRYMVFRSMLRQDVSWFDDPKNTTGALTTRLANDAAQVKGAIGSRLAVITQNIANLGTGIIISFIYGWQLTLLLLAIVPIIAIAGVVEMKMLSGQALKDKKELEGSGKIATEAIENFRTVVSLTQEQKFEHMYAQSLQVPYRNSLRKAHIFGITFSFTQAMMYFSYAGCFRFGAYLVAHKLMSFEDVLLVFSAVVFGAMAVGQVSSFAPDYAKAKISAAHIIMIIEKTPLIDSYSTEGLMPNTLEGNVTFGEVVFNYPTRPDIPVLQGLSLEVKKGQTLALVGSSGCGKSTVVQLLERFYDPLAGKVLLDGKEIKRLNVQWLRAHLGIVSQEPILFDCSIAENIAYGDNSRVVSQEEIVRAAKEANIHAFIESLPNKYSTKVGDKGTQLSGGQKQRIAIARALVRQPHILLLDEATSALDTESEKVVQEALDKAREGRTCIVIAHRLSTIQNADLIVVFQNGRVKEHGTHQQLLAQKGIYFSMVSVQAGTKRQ
# Ratio annotations
Could you keep your reply to the number by itself?

Some entries whose results are on file:
Query string: Notebook entry, ATP-dependent translocase ABCB1 (Homo sapiens) assay: Ratio of `O=C1/C(=C/c2ccccc2)CN(C(=O)c2ccccc2C(=O)N2C/C(=C\c3ccccc3)C(=O)/C(=C/c3ccccc3)C2)C/C1=C\c1ccccc1` = ?
Result string: 46.5

Query string: What about `O=C1/C(=C/c2ccccc2)CN(C(=O)CCCCCCC(=O)N2C/C(=C\c3ccccc3)C(=O)/C(=C/c3ccccc3)C2)C/C1=C\c1ccccc1` ?
Result string: 49.2

Query string: What about `O=C1/C(=C/c2ccccc2)CN(C(=O)CCCC(=O)N2C/C(=C\c3ccccc3)C(=O)/C(=C/c3ccccc3)C2)C/C1=C\c1ccccc1` ?
Result string: 50.2

Query string: What about `O=C1/C(=C/c2ccccc2)CN(C(=O)C(=O)N2C/C(=C\c3ccccc3)C(=O)/C(=C/c3ccccc3)C2)C/C1=C\c1ccccc1` ?
Result string: 19.3

Query string: What about `O=C1/C(=C/c2ccccc2)CN(C(=O)CCC(=O)N2C/C(=C\c3ccccc3)C(=O)/C(=C/c3ccccc3)C2)C/C1=C\c1ccccc1` ?
Result string: 35

Attention now shifts to the item below.
Query string: Notebook entry, ATP-dependent translocase ABCB1 (Homo sapiens) assay: Ratio of `O=C1/C(=C/c2ccccc2)CN(C(=O)C#CC(=O)N2C/C(=C\c3ccccc3)C(=O)/C(=C/c3ccccc3)C2)C/C1=C\c1ccccc1` = ?
Result string: 42

====

# Ratio annotations
system: HSC-3; assay: Selectivity index, ratio of CC50 for human normal cells to CC50 for human HSC3 cells; format: functional
Could you keep your reply to the number by itself?

Query string: Notebook entry, HSC-3 assay: Ratio of `O=C1/C(=C/c2ccccc2)CN(C(=O)CC(=O)N2C/C(=C\c3ccccc3)C(=O)/C(=C/c3ccccc3)C2)C/C1=C\c1ccccc1` = ?
Result string: 20

Query string: What about `O=C1/C(=C/c2ccccc2)CN(C(=O)/C=C/C=C/C(=O)N2C/C(=C\c3ccccc3)C(=O)/C(=C/c3ccccc3)C2)C/C1=C\c1ccccc1` ?
Result string: 4.12

Query string: What about `O=C1/C(=C/c2ccccc2)CN(C(=O)C#CC(=O)N2C/C(=C\c3ccccc3)C(=O)/C(=C/c3ccccc3)C2)C/C1=C\c1ccccc1` ?
Result string: 16.1

Query string: What about `O=C1/C(=C/c2ccccc2)CN(C(=O)c2ccccc2C(=O)N2C/C(=C\c3ccccc3)C(=O)/C(=C/c3ccccc3)C2)C/C1=C\c1ccccc1` ?
Result string: 64.7

Attention now shifts to the item below.
Query string: Notebook entry, HSC-3 assay: Ratio of `O=C1/C(=C/c2ccccc2)CN(C(=O)C(=O)N2C/C(=C\c3ccccc3)C(=O)/C(=C/c3ccccc3)C2)C/C1=C\c1ccccc1` = ?
Result string: 21.7

Numbers sourced from ChEMBL document CHEMBL2010770.
